assayComment: Pharmacokinetics in rat plasma after oral administration of CGF, SGF, GCGF and GIGF extracts (LC-MS/MS)
conditions: male, Sprague-Dawley, rat, plasma, po, 0.75 mL/kg, C max, rat plasma, single oral dose of CGF extract 0.75 mL/kg, n = 6, mean ± SD
So I've got a bunch of compounds here, and I need their Cmax values.
Your answer should be a plain number; it is taken to be in ng/mL.

Exercise: Please report the measured Cmax for COC(=O)C1=CO[C@@H](O[C@@H]2O[C@H](CO)[C@@H](O)[C@H](O)[C@H]2O)[C@@H]2C(CO)=CC[C@H]12 [Geniposide]
Key: 1070

Exercise: Supply measured Cmax of COC(=O)C1=CO[C@@H](O)[C@@H]2C(CO)=CC[C@H]12 in your reply.
Key: 76.4

Exercise: Identify measured Cmax associated with O=C(O)C1=CO[C@@H](O[C@@H]2O[C@H](CO)[C@@H](O)[C@H](O)[C@H]2O)[C@@H]2C(CO)=CC[C@H]12
Key: 1020

Exercise: Note down Cmax recorded for CC(/C=C/C=C(\C)C(=O)O)=C\C=C\C=C(C)\C=C\C=C(/C)C(=O)O
Key: 165

----------
assayComment: Stability of the analytes in rat plasma QC samples under storage conditions
Assay type: in vitro ADME
conditions: 10 ng/mL
measurementName: Autosampler for 24 h Remain
Put your answer as a value accompanied by its unit after it.

Exercise: Let me know recorded Autosampler for 24 h Remain for COC(=O)C1=CO[C@@H](O[C@@H]2O[C@H](CO[C@@H]3O[C@H](CO)[C@@H](O)[C@H](O)[C@H]3O)[C@@H](O)[C@H](O)[C@H]2O)[C@@H]2C(CO)=CC[C@H]12 [Genipin-1-β-gentiobioside] , thanks.
Key: 99.3%

Exercise: Quickly give me recorded Autosampler for 24 h Remain for O=C(O)C1=CO[C@@H](O[C@@H]2O[C@H](CO)[C@@H](O)[C@H](O)[C@H]2O)[C@@H]2C(CO)=CC[C@H]12
Key: 94.7%

Exercise: Answer with the recorded Autosampler for 24 h Remain for the molecule listed here: COC(=O)C1=CO[C@@H](O[C@@H]2O[C@H](CO)[C@@H](O)[C@H](O)[C@H]2O)[C@@H]2C(CO)=CC[C@H]12 [Geniposide]
Key: 102%

Exercise: Supply Autosampler for 24 h Remain value. Item: CC(/C=C/C=C(\C)C(=O)O)=C\C=C\C=C(C)\C=C\C=C(/C)C(=O)O
Key: 97.9%

Exercise: Dear colleague, please send me the reported Autosampler for 24 h Remain for COC(=O)C1=CO[C@@H](O)[C@@H]2C(CO)=CC[C@H]12 when you can.
Key: 95.4%

----------
assayComment: Pharmacokinetics in rat plasma after oral administration of CGF, SGF, GCGF and GIGF extracts (LC-MS/MS)
conditions: male, Sprague-Dawley, rat, plasma, po, 0.75 mL/kg, T 1/2, rat plasma, single oral dose of CGF extract 0.75 mL/kg, n = 6, mean ± SD
measurementName: half-life (h)
All answers are understood in h, so give the number only.

Exercise: Specify half-life for COC(=O)C1=CO[C@@H](O[C@@H]2O[C@H](CO)[C@@H](O)[C@H](O)[C@H]2O)[C@@H]2C(CO)=CC[C@H]12 [Geniposide] and stop.
Key: 3.21

Exercise: Look up half-life of COC(=O)C1=CO[C@@H](O)[C@@H]2C(CO)=CC[C@H]12 and report it.
Key: 3.42

Exercise: Indicate its recorded half-life; the compound in question is CC(/C=C/C=C(\C)C(=O)O)=C\C=C\C=C(C)\C=C\C=C(/C)C(=O)O
Key: 41.6

Exercise: Provide one value: measured half-life of O=C(O)C1=CO[C@@H](O[C@@H]2O[C@H](CO)[C@@H](O)[C@H](O)[C@H]2O)[C@@H]2C(CO)=CC[C@H]12
Key: 2.52

----------
assayComment: Stability of the analytes in rat plasma QC samples under storage conditions
Format: in vitro ADME
conditions: 10 ng/mL, three freeze-thaw cycles
measurementName: Freeze-thaw cycles Remain (%)
A number alone suffices; assume %.

Exercise: Dear colleague, please send me the reported Freeze-thaw cycles Remain for COC(=O)C1=CO[C@@H](O[C@@H]2O[C@H](CO)[C@@H](O)[C@H](O)[C@H]2O)[C@@H]2C(CO)=CC[C@H]12 [Geniposide] when you can.
Key: 97.5

Exercise: Name the recorded Freeze-thaw cycles Remain of the compound listed here: O=C(O)C1=CO[C@@H](O[C@@H]2O[C@H](CO)[C@@H](O)[C@H](O)[C@H]2O)[C@@H]2C(CO)=CC[C@H]12 [Geniposidic acid]
Key: 96.3

Exercise: Please give measured Freeze-thaw cycles Remain of the following entry: CC(/C=C/C=C(\C)C(=O)O)=C\C=C\C=C(C)\C=C\C=C(/C)C(=O)O [Crocetin]
Key: 102

Exercise: Please list Freeze-thaw cycles Remain recorded for the compound COC(=O)C1=CO[C@@H](O[C@@H]2O[C@H](CO[C@@H]3O[C@H](CO)[C@@H](O)[C@H](O)[C@H]3O)[C@@H](O)[C@H](O)[C@H]2O)[C@@H]2C(CO)=CC[C@H]12 [Genipin-1-β-gentiobioside]
Key: 104

----------
assayComment: Stability of the analytes in rat plasma QC samples under storage conditions
Type: in vitro ADME
conditions: 3000 ng/mL
For each record, write down the corresponding Autosampler for 24 h Remain.
Quick note: give the figure in %, leave out the unit.

Exercise: Return Autosampler for 24 h Remain (reported value) for this molecule: CC(/C=C/C=C(\C)C(=O)O)=C\C=C\C=C(C)\C=C\C=C(/C)C(=O)O [Crocetin]
Key: 98.9

Exercise: Indicate its recorded Autosampler for 24 h Remain; the molecule in question is COC(=O)C1=CO[C@@H](O[C@@H]2O[C@H](CO[C@@H]3O[C@H](CO)[C@@H](O)[C@H](O)[C@H]3O)[C@@H](O)[C@H](O)[C@H]2O)[C@@H]2C(CO)=CC[C@H]12 [Genipin-1-β-gentiobioside]
Key: 90.7

Exercise: Indicate the recorded Autosampler for 24 h Remain value for this molecule: COC(=O)C1=CO[C@@H](O)[C@@H]2C(CO)=CC[C@H]12 [Genipin]
Key: 92.6

Exercise: Indicate the recorded Autosampler for 24 h Remain value for this molecule: O=C(O)C1=CO[C@@H](O[C@@H]2O[C@H](CO)[C@@H](O)[C@H](O)[C@H]2O)[C@@H]2C(CO)=CC[C@H]12 [Geniposidic acid]
Key: 96.7

Exercise: Provide one value: measured Autosampler for 24 h Remain of COC(=O)C1=CO[C@@H](O[C@@H]2O[C@H](CO)[C@@H](O)[C@H](O)[C@H]2O)[C@@H]2C(CO)=CC[C@H]12 [Geniposide]
Key: 91.6

----------
assayComment: Pharmacokinetics in rat plasma after oral administration of CGF, SGF, GCGF and GIGF extracts (LC-MS/MS)
conditions: male, Sprague-Dawley, rat, plasma, po, 0.75 mL/kg, T 1/2, rat plasma, single oral dose of GCGF extract 0.75 mL/kg, n = 6, mean ± SD
For each entry below, report its half-life value.
Write the numeric value and append its unit.

Exercise: Identify measured half-life corresponding to O=C(O)C1=CO[C@@H](O[C@@H]2O[C@H](CO)[C@@H](O)[C@H](O)[C@H]2O)[C@@H]2C(CO)=CC[C@H]12 [Geniposidic acid]
Key: 1.72 h

Exercise: Give a short answer stating reported half-life for COC(=O)C1=CO[C@@H](O)[C@@H]2C(CO)=CC[C@H]12 [Genipin] .
Key: 1.39 h

Exercise: Identify the reported half-life for the following entry. CC(/C=C/C=C(\C)C(=O)O)=C\C=C\C=C(C)\C=C\C=C(/C)C(=O)O [Crocetin]
Key: 12.8 h

----------
Field: Tmax. Provide a value for each of the compounds that follow.
assayComment: Pharmacokinetics in rat plasma after oral administration of CGF, SGF, GCGF and GIGF extracts (LC-MS/MS)
conditions: male, Sprague-Dawley, rat, plasma, po, 0.75 mL/kg, T max, rat plasma, single oral dose of SGF extract 0.75 mL/kg, n = 6, mean ± SD
Write the value in h as a bare number.

Exercise: Provide one value: measured Tmax of O=C(O)C1=CO[C@@H](O[C@@H]2O[C@H](CO)[C@@H](O)[C@H](O)[C@H]2O)[C@@H]2C(CO)=CC[C@H]12 [Geniposidic acid]
Key: 1.78

Exercise: Please report the measured Tmax for COC(=O)C1=CO[C@@H](O[C@@H]2O[C@H](CO)[C@@H](O)[C@H](O)[C@H]2O)[C@@H]2C(CO)=CC[C@H]12 [Geniposide]
Key: 0.89

Exercise: Please report Tmax for the following compound: CC(/C=C/C=C(\C)C(=O)O)=C\C=C\C=C(C)\C=C\C=C(/C)C(=O)O [Crocetin]
Key: 6.61

Exercise: Quote Tmax reported for COC(=O)C1=CO[C@@H](O)[C@@H]2C(CO)=CC[C@H]12 [Genipin] please.
Key: 1
